# Assayed System: T1, human OPGbp [143-317] (human, UniProt O14788 143-317)
# T1 construct: also called OPGL
# T1 sequence (looked up): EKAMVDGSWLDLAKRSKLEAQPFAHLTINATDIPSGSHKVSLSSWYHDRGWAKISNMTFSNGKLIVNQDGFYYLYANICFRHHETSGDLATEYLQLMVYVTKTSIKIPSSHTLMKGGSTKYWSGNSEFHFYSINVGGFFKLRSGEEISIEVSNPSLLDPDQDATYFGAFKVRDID
# Procedure Text: SPR (BIAcore), immobilized OPGbp [143-317]
Value Type: kon (M⁻¹ s⁻¹)
Write the value in M⁻¹ s⁻¹ as a bare number.

{"columns": ["Binder", "kon / M⁻¹ s⁻¹"],
 "data": [
  ["“AT” antibody variant S97L (heavy chain CDR3) (antibody, name in Kabat numbering, V domains shown, not shown: human IgG1 CH1, hinge, CH2 and CH3) VH: QVQLVQSGAEVRKPGASVKVSCKASGYDFSNYAIHWVRQAPGQRLEWMGWINAGNGNTKFSQKFQGRITVTRDTAASTAYMELRSLRSEDTAVYYCARDSLNMVRGIIIAYYFDYWGQGTLVTVSS VL: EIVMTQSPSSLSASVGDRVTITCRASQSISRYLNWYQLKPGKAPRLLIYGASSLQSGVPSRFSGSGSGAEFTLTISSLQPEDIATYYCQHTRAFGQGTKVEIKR", 750000],
  ["“AT” antibody variant S97V (heavy chain CDR3) (antibody, name in Kabat numbering, V domains shown, not shown: human IgG1 CH1, hinge, CH2 and CH3) VH: QVQLVQSGAEVRKPGASVKVSCKASGYDFSNYAIHWVRQAPGQRLEWMGWINAGNGNTKFSQKFQGRITVTRDTAASTAYMELRSLRSEDTAVYYCARDSVNMVRGIIIAYYFDYWGQGTLVTVSS VL: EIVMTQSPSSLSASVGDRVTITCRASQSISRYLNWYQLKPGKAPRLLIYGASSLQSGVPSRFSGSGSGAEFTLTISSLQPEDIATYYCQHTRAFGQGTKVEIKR", "3.04e+06"],
  ["“AT” antibody variant S97K (heavy chain CDR3) (antibody, name in Kabat numbering, V domains shown, not shown: human IgG1 CH1, hinge, CH2 and CH3) VH: QVQLVQSGAEVRKPGASVKVSCKASGYDFSNYAIHWVRQAPGQRLEWMGWINAGNGNTKFSQKFQGRITVTRDTAASTAYMELRSLRSEDTAVYYCARDSKNMVRGIIIAYYFDYWGQGTLVTVSS VL: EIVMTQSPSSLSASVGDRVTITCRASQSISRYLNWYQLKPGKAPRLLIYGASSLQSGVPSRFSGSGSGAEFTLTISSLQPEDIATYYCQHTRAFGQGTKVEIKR", "1.45e+07"],
  ["“AT” antibody variant S97T (heavy chain CDR3) (antibody, name in Kabat numbering, V domains shown, not shown: human IgG1 CH1, hinge, CH2 and CH3) VH: QVQLVQSGAEVRKPGASVKVSCKASGYDFSNYAIHWVRQAPGQRLEWMGWINAGNGNTKFSQKFQGRITVTRDTAASTAYMELRSLRSEDTAVYYCARDSTNMVRGIIIAYYFDYWGQGTLVTVSS VL: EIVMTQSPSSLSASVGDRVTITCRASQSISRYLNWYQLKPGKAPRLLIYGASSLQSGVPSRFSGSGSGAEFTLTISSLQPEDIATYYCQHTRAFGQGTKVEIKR", 463000]
]}

Turning now to a further binder:
# kon (binder: “AT” antibody variant S97Q (heavy chain CDR3) (antibody, name in Kabat numbering, V domains shown, not shown: human IgG1 CH1, hinge, CH2 and CH3) VH: QVQLVQSGAEVRKPGASVKVSCKASGYDFSNYAIHWVRQAPGQRLEWMGWINAGNGNTKFSQKFQGRITVTRDTAASTAYMELRSLRSEDTAVYYCARDSQNMVRGIIIAYYFDYWGQGTLVTVSS VL: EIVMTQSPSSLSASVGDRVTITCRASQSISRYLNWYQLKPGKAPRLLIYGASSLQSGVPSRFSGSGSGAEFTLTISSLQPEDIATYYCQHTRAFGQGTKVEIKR ) is 730000

Measured values drawn from patent US20140147444A1 for this set.
